molecular target: interaction between the AnxA2 N-terminus and S100A10 (Homo sapiens, UniProt P60903); experiment: Fluorescence screening assay (FRET competitive binding, Cy3-AnxA2(Ac1–14) peptide / Cy5-S100A10); details: Table 1; FRET assay, 12 observations; read-out: IC50
Sequence (P60903 whole entry, species assumed): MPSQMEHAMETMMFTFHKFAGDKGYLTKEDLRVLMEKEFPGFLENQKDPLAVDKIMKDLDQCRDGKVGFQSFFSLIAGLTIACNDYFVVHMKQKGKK
// values below are reported pIC50
FYI, pIC50 means -log10 of a concentration in mol per litre.

Past entries and their recorded results:
>>> quantitative_readout("Cc1ccc(C)c(NC(=O)CSc2nnc(CSc3nc(C)cc(C)n3)n2Cc2ccco2)c1")
4.43
>>> quantitative_readout("Cc1nnc(NC(=O)CSc2nnc(Cc3ccccc3)n2Cc2ccccc2)s1")
4.28

Prompt: Reported pIC50 for `Cc1ccc(NC(=O)CSc2nnc(CSc3nc(C)cc(C)n3)n2Cc2ccco2)c(C)c1` : what is it?
Completion: 4.82

Prompt: Reported pIC50 for `Cc1cc(C)nc(SCc2nnc(SCC(=O)Nc3cc(C)on3)n2Cc2ccco2)n1` : what is it?
Completion: 4.37

Prompt: Reported pIC50 for `Cc1cc(C)nc(SCc2nnc(SCC(=O)Nc3ccccc3)n2Cc2ccco2)n1` : what is it?
Completion: 4.64

Prompt: Reported pIC50 for `Cc1cc(C)nc(SCc2nnc(SCC(=O)Nc3ccc(C(C)C)cc3)n2Cc2ccco2)n1` : what is it?
Completion: 5.40

Prompt: Reported pIC50 for `Cc1cc(C)nc(SCc2nnc(SCC(=O)Nc3nccs3)n2Cc2ccco2)n1` : what is it?
Completion: 3.89

Prompt: Reported pIC50 for `Cc1cccc(NC(=O)CSc2nnc(CSc3nc(C)cc(C)n3)n2Cc2ccco2)c1` : what is it?
Completion: 4.89

Prompt: Reported pIC50 for `Cc1ccc(NC(=O)CSc2nnc(CSc3nc(C)cc(C)n3)n2Cc2ccco2)cc1` : what is it?
Completion: 4.96

Prompt: Reported pIC50 for `Cc1cc(C)nc(SCc2nnc(SCC(=O)Nc3ccc(C(F)(F)F)cc3)n2Cc2ccco2)n1` : what is it?
Completion: 4.55

Prompt: Reported pIC50 for COc1ccc(OCc2nnc(SC(C)C(=O)Nc3nccs3)n2-c2ccccc2)cc1 (centres unmarked) : what is it?
Completion: 3.97

Prompt: Reported pIC50 for `Cc1cc(C)nc(SCc2nnc(SCC(=O)Nc3ccc(C)c(C)c3)n2Cc2ccco2)n1` : what is it?
Completion: 5.00

Prompt: Reported pIC50 for `Cc1cc(C)nc(SCc2nnc(SCC(N)=O)n2Cc2ccco2)n1` : what is it?
Completion: 3.75

Prompt: Reported pIC50 for `Cc1cc(C)nc(SCc2nnc(SCC(=O)Nc3nc(C)cs3)n2Cc2ccco2)n1` : what is it?
Completion: 4.52
